- assay_target: Chymotrypsin, from human pancreas (human, UniProt P17538 19-263)
- Sequence (P17538 19-263): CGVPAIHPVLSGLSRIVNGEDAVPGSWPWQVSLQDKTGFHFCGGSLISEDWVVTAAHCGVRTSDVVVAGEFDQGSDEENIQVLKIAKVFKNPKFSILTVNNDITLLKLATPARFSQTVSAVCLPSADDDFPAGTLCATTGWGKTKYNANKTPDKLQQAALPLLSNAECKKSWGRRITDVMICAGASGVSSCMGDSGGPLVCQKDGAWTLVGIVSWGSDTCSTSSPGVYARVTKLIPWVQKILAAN
- procedure_details: cell-based or functional assay
Collected % inhibition at 100 µM values appear next to each entry.
Value expressed in %; do not type the unit.

binder	test_result
FCTKSDPPICD (HELM PEPTIDE1{F.C.T.K.S.D.P.P.I.C.D.[dP].P}$PEPTIDE1,PEPTIDE1,2:R3-10:R3|PEPTIDE1,PEPTIDE1,1:R1-13:R2$$$V2.0; SMILES CC[C@H](C)[C@@H]1NC(=O)[C@@H]2CCCN2C(=O)[C@@H]2CCCN2C(=O)[C@H](CC(=O)O)NC(=O)[C@H](CO)NC(=O)[C@H](CCCCN)NC(=O)[C@H]([C@@H](C)O)NC(=O)[C@@H]2CSSC[C@H](NC1=O)C(=O)N[C@@H](CC(=O)O)C(=O)N1CCC[C@@H]1C(=O)N1CCC[C@H]1C(=O)N[C@@H](Cc1ccccc1)C(=O)N2) [Example 2]	2.9

Could you now look at the following binder, please?
## Task Consider the binder FCTXSDPPICY (HELM PEPTIDE1{F.C.T.[Nle].S.D.P.P.I.C.Y.[dP].P}$PEPTIDE1,PEPTIDE1,2:R3-10:R3|PEPTIDE1,PEPTIDE1,1:R1-13:R2$$$V2.0; SMILES CCCC[C@@H]1NC(=O)[C@H]([C@@H](C)O)NC(=O)[C@@H]2CSSC[C@H](NC(=O)[C@H]([C@@H](C)CC)NC(=O)[C@@H]3CCCN3C(=O)[C@@H]3CCCN3C(=O)[C@H](CC(=O)O)NC(=O)[C@H](CO)NC1=O)C(=O)N[C@@H](Cc1ccc(O)cc1)C(=O)N1CCC[C@@H]1C(=O)N1CCC[C@H]1C(=O)N[C@@H](Cc1ccccc1)C(=O)N2) [Example 23] and give its recorded % inhibition at 100 µM.
## Result 4
